Experiment: xn = mol fraction of the nth substance listed
Details: 298.15 K; 101 kPa; x1 = 0.1
We use 3 mPa·s as the dividing line for viscosity: on or above the line is true (1), below is false (0).

Example cases with answers are listed next.
{"COMPOUND": "CCOC(=O)[C@@H](O)[C@H](O)C(=O)OCC + CC(C)CO", "CAT": "true (1)"}
{"COMPOUND": "CCOC(=O)[C@@H](O)[C@H](O)C(=O)OCC + CC(C)CCO", "CAT": "true (1)"}

Is the recorded value of viscosity equal to or greater than 3 mPa·s for this compound? CCOC(=O)[C@@H](O)[C@H](O)C(=O)OCC + CCCO
false (0)

Query CC(C)O + O next
false (0)

Query CCOC(C)(C)C + CCCCOCCO next
false (0)

Query CCOC(C)(C)C + COCCO next
false (0)

###

Assay: xn = mol fraction of the nth substance listed
Conditions: 308.15 K; 101 kPa; x1 = 0.2
# viscosity per record follows
Express your answer in mPa·s, writing the number without its unit.

{"MOLECULE": "CCOC(=O)[C@@H](O)[C@H](O)C(=O)OCC + CC(C)CCO", "SCALE UNIT": "mPa·s", "viscosity": 4.138}
{"MOLECULE": "CCOC(=O)[C@@H](O)[C@H](O)C(=O)OCC + CC(C)CO", "SCALE UNIT": "mPa·s", "viscosity": 4.111}
{"MOLECULE": "CCOC(=O)[C@@H](O)[C@H](O)C(=O)OCC + CCCCCCO", "SCALE UNIT": "mPa·s", "viscosity": 4.618}

Look up viscosity: CC(C)O + O
2.109

Query CCOC(=O)[C@@H](O)[C@H](O)C(=O)OCC + CCCO next
3.17

###

Experiment: xn = mol fraction of the nth substance listed
Conditions: 293.15 K; 101 kPa; x1 = 0.1
± gives the uncertainty stated by the source.
QUANTITY MEASURED: viscosity
Please report the result as a number followed by the unit.

Answered examples (4):
{"COMPOUND": "CCOC(=O)[C@@H](O)[C@H](O)C(=O)OCC + CC(C)CO", "viscosity": "5.103 ± 0.041 mPa·s"}
{"COMPOUND": "CCOC(C)(C)C + CCCCOCCO", "viscosity": "2.603 ± 0.067 mPa·s"}
{"COMPOUND": "CCOC(=O)[C@@H](O)[C@H](O)C(=O)OCC + CCCO", "viscosity": "3.256 ± 0.023 mPa·s"}
{"COMPOUND": "CCOC(C)(C)C + COCCO", "viscosity": "1.493 ± 0.019 mPa·s"}

Look up viscosity: CCOC(=O)[C@@H](O)[C@H](O)C(=O)OCC + CC(C)CCO
5.227 ± 0.049 mPa·s

Query CC(C)O + O next
3.054 ± 0.02 mPa·s

###

Assay: xn = mol fraction of the nth substance listed
Conditions: 313.15 K; 101 kPa; x1 = 0.1
QUANTITY MEASURED: viscosity (mPa·s)
Express your answer in mPa·s, writing the number without its unit.

Answered examples (4):
{"COMPOUND": "CCOC(=O)[C@@H](O)[C@H](O)C(=O)OCC + CC(C)CO", "DATA VALUE": 2.607}
{"COMPOUND": "CCOC(=O)[C@@H](O)[C@H](O)C(=O)OCC + CC(C)CCO", "DATA VALUE": 2.774}
{"COMPOUND": "[Li+].[O-][Cl+3]([O-])([O-])[O-] + O=S1(=O)CCCC1", "DATA VALUE": 20.83}
{"COMPOUND": "CC(C)O + O", "DATA VALUE": 1.458}

// next item, viscosity requested
Look up viscosity: CCOC(=O)[C@@H](O)[C@H](O)C(=O)OCC + CCCO
1.913

###

Conditions: 298.15 K; 100 kPa
# viscosity per record follows
Express your answer in mPa·s, writing the number without its unit.

{"COMPOUND": "CC1CCCCC1", "viscosity, mPa·s": 0.69}
{"COMPOUND": "OC1CCCCCCC1", "viscosity, mPa·s": 143}
{"COMPOUND": "CCn1cc[n+](C)c1.N#C[S-]", "viscosity, mPa·s": 23.06}

// next item, viscosity requested
Look up viscosity: OCC(F)(F)C(F)F
4.861

###

# viscosity per record follows
Conditions: 303.15 K; 101 kPa
± gives the uncertainty stated by the source.

Answered examples (7):
{"COMPOUND": "C=C(C)C(=O)OCC", "DATA VALUE": "0.5825 ± 0.013 mPa·s"}
{"COMPOUND": "COC(=O)c1ccccc1O", "DATA VALUE": "2.44 ± 0.028 mPa·s"}
{"COMPOUND": "C1=CCCCC1", "DATA VALUE": "0.573 ± 0.007 mPa·s"}
{"COMPOUND": "CCS(=O)CC", "DATA VALUE": "2.1 ± 0.04 mPa·s"}
{"COMPOUND": "CC1CCCCC1", "DATA VALUE": "0.6416 ± 0.0044 mPa·s"}
{"COMPOUND": "CCn1cc[n+](C)c1.N#C[S-]", "DATA VALUE": "19.03 ± 0.49 mPa·s"}
{"COMPOUND": "CCCCCN", "DATA VALUE": "0.5809 ± 0.005 mPa·s"}

// next item, viscosity requested
Look up viscosity: CC(=O)[O-].CCCC[NH2+]CCO
616.9 ± 24 mPa·s

###

Conditions: 308.15 K; 101 kPa
QUANTITY MEASURED: viscosity (mPa·s)
Express your answer in mPa·s, writing the number without its unit.

Answered examples (3):
{"COMPOUND": "CCS(=O)CC", "viscosity [mPa·s]": 1.88}
{"COMPOUND": "CC(=O)[O-].CCCC[NH2+]CCO", "viscosity [mPa·s]": 423.3}
{"COMPOUND": "CCCC[N+]1(C)CCCC1.N#C[S-]", "viscosity [mPa·s]": 70.36}

// next item, viscosity requested
Look up viscosity: C=C(C)C(=O)OCC
0.5323

###

Assay: xn = mol fraction of the nth substance listed
Conditions: 308.15 K; 101 kPa; x1 = 0.1
Lab note: anything with viscosity below 3 mPa·s is marked Fulfilled; values at 3 mPa·s or higher are marked Not fulfilled.

{"COMPOUND": "CCOC(=O)[C@@H](O)[C@H](O)C(=O)OCC + CCCO", "CAT": "Fulfilled"}
{"COMPOUND": "[Li+].[O-][Cl+3]([O-])([O-])[O-] + O=S1(=O)CCCC1", "CAT": "Not fulfilled"}
{"COMPOUND": "CCOC(=O)[C@@H](O)[C@H](O)C(=O)OCC + CC(C)CCO", "CAT": "Not fulfilled"}

Next, consider the following compound.
Lab log: compare recorded viscosity with 3 mPa·s; is it strictly lower for CC(C)O + O ?
Fulfilled

###

Conditions: 303.15 K; 101.33 kPa
# viscosity per record follows
Express your answer in mPa·s, writing the number without its unit.

Answered examples (3):
{"MOLECULE": "CC1CCCCC1", "SCALE UNIT": "mPa·s", "viscosity": 0.639}
{"MOLECULE": "CCCCCN", "SCALE UNIT": "mPa·s", "viscosity": 0.563}
{"MOLECULE": "CNS(C)(=O)=O", "SCALE UNIT": "mPa·s", "viscosity": 8.242}

// next item, viscosity requested
Look up viscosity: CCC(C)CO (centres undefined)
3.594

###

# viscosity per record follows
Assay: xn = mol fraction of the nth substance listed
Settings: 293.15 K; 101 kPa; x1 = 0.2
Express your answer in mPa·s, writing the number without its unit.

Answered examples (2):
{"COMPOUND": "CCOC(=O)[C@@H](O)[C@H](O)C(=O)OCC + CC(C)CCO", "viscosity, mPa·s": 7.032}
{"COMPOUND": "CC(C)O + O", "viscosity, mPa·s": 3.741}

Look up viscosity: CCOC(=O)[C@@H](O)[C@H](O)C(=O)OCC + CCCCCCO
7.861

Query CCOC(C)(C)C + COCCO next
1.291

Query CCOC(=O)[C@@H](O)[C@H](O)C(=O)OCC + CC(C)CO next
7.263

Query CCOC(=O)[C@@H](O)[C@H](O)C(=O)OCC + CCCO next
5.15

###

Test: xn = mol fraction of the nth substance listed
Conditions: 313.15 K; 101 kPa; x1 = 0.2
Lab note: anything with viscosity below 3 mPa·s is marked fulfilled; values at 3 mPa·s or higher are marked not fulfilled.

Example cases with answers are listed next.
{"MOLECULE": "CCOC(=O)[C@@H](O)[C@H](O)C(=O)OCC + CC(C)CCO", "CAT": "not fulfilled"}
{"MOLECULE": "CCOC(=O)[C@@H](O)[C@H](O)C(=O)OCC + CCCO", "CAT": "fulfilled"}
{"MOLECULE": "CC(C)O + O", "CAT": "fulfilled"}
{"MOLECULE": "CCOC(=O)[C@@H](O)[C@H](O)C(=O)OCC + CCCCCCO", "CAT": "not fulfilled"}

Next, consider the following molecule.
Lab log: compare recorded viscosity with 3 mPa·s; is it strictly lower for CCOC(=O)[C@@H](O)[C@H](O)C(=O)OCC + CC(C)CO ?
not fulfilled
